Target: RET-CCDC6 (Homo sapiens, UniProt P07949)
Construct: CCDC6 (fusion partner, UniProt Q16204); purchased Reaction Biology Corporation (contract assay; enzyme is the CRO's); the other entry of the earlier key: CCDC6 (Q16204, Coiled-coil domain-containing protein 6)
Sequence (P07949 with tags, fused parts or gaps): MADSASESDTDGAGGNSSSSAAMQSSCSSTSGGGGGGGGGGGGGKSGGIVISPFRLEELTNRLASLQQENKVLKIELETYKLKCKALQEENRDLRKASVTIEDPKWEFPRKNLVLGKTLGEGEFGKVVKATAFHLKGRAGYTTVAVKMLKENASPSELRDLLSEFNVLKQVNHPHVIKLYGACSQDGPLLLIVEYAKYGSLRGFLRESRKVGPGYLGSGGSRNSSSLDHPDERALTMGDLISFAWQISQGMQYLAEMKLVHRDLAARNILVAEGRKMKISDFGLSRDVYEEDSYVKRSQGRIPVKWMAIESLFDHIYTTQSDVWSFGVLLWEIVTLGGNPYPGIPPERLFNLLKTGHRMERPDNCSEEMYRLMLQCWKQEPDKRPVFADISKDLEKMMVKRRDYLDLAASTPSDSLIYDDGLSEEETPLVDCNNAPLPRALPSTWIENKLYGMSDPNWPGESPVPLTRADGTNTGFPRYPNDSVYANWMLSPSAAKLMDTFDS
Assay: Biochemical IC50 of RET-CCDC6 fusion (33P-ATP filter binding, Reaction Biology)
measurement_label: pIC50
Keep in mind that pIC50 stands for -log10 of concentration in molar terms.

Example compounds with recorded pIC50:
compound: Cn1cc(-c2cn3ncc(C#N)c3c(-c3ccc(N4CCS(=N)(=O)CC4)nc3)n2)cn1 [Ex. 20]
pIC50: 9.17
//
compound: Cn1cc(-c2cn3ncc(C#N)c3c(-c3ccc(N4CCC(N=[S@](C)(=O)c5ccccc5)CC4)nc3)n2)cn1 [Ex. 25]
pIC50: 8.94
//
compound: COc1ccc(CN=S2(=O)CCN(c3ccc(-c4cc(-c5cnn(C)c5)cn5ncc(C#N)c45)cn3)CC2)cn1 [Ex. 14]
pIC50: 9.47

Proceeding to the next compound to report its pIC50.
The compound listed as Cn1cc(-c2cn3ncc(C#N)c3c(-c3ccc(N4CCC(N=S(C)(C)=O)CC4)nc3)n2)cn1 [Ex. 23] shows pIC50 equal to 8.67

====

// IC50 lookup, one value per entry
Biological target: RET-CCDC6 (Homo sapiens)
Construct: CCDC6 (fusion partner, UniProt Q16204); purchased Reaction Biology Corporation (contract assay; enzyme is the CRO's); the other entry of the earlier key: CCDC6 (Q16204, Coiled-coil domain-containing protein 6)
Sequence (P07949 with tags, fused parts or gaps): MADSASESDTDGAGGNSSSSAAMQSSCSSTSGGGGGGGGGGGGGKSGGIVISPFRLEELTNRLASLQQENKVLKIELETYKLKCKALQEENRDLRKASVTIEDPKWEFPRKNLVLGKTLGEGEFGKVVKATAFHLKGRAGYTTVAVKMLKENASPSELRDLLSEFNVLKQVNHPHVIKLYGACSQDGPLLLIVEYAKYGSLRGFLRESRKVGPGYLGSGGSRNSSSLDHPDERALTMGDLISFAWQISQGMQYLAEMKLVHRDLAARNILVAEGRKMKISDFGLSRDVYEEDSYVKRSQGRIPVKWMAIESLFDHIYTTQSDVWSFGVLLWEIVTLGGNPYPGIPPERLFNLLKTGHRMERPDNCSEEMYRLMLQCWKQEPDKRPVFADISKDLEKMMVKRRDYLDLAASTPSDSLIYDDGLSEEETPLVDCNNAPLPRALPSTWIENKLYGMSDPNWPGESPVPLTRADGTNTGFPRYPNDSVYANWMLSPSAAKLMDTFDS
Experiment: Biochemical IC50 of RET-CCDC6 fusion (33P-ATP filter binding, Reaction Biology)
Unit nM implied. Number only.

Example compounds with recorded IC50:
compound: COc1ccc(CN=S2(=O)CCN(c3ccc(-c4nc(-c5cnn(C)c5)cn5ncc(C#N)c45)cn3)CC2)cn1 [Ex. 21]
system_name: RET-CCDC6 (Homo sapiens)
reported_measurement: 0.528

compound: CC(C)CN=S1(=O)CCN(c2ccc(-c3cc(-c4cnn(C)c4)cn4ncc(C#N)c34)cn2)CC1 [Ex. 13]
system_name: RET-CCDC6 (Homo sapiens)
reported_measurement: 0.416

Proceeding to the next compound to report its IC50.
The compound listed as Cn1cc(-c2cc(-c3ccc(N4CCC(N=S(C)(C)=O)CC4)nc3)c3c(C#N)cnn3c2)cn1 [Ex. 16] shows IC50 equal to 0.619
